- Tested target: EcDHFR (Escherichia coli, UniProt P0ABQ4)
- Sequence (P0ABQ4 whole entry): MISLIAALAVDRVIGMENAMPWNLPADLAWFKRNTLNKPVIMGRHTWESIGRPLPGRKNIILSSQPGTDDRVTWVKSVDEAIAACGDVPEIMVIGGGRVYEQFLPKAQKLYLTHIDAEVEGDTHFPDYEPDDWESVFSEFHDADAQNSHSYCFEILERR
- Measurement description: biochemical
- Type: biochemical
Result type: pKi
Numbers only, as −log10 of the molar value.

Short answer for Oc1ccc(/C=C/c2cc(O)cc(O)c2)cc1 [resveratrol] : pKi was 4.02

---
Recorded pKi (compound COc1ccc(CC(=O)c2ccc(O)cc2O)cc1 [ononetin] ): 4.08

====

- Tested target: EcDHFR (Escherichia coli, UniProt P0ABQ4)
- Measurement description: biochemical
- Format: biochemical
Result type: IC50 (µM)
One number for each entry, in µM.

Just so you know, measured IC50 for Oc1ccc(/C=C/c2cc(O)cc(O)c2)cc1 [resveratrol] came out at 95.7

Then this molecule:
Looking up COc1ccc(CC(=O)c2ccc(O)cc2O)cc1 [ononetin] , I see its IC50 listed as 83.4
